subject.of.test: His tagged full-length PTPN1 protein (Homo sapiens)
Construct: made in house
Sequence (P18031 with tags, fused parts or gaps): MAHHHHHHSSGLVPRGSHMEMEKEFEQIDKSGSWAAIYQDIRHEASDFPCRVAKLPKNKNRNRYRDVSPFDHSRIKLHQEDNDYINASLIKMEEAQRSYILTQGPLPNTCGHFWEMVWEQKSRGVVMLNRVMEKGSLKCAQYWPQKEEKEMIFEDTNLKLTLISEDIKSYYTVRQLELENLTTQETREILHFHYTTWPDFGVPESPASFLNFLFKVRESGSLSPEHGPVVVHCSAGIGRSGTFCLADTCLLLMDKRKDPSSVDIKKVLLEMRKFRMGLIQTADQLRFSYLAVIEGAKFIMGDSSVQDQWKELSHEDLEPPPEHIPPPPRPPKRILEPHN
test.name: Mobility shift assay (MSA) used to determine potency of PTPN1 inhibitors
Type: biochemical
condition.label: enzyme 0.5 nM, substrate 2 μM
measured.attribute: IC50

O=C1CN(c2c(O)cc3c(c2F)CC(NCCCC(F)(F)F)CC3)S(=O)(=O)N1 (centres unmarked)	1 to 10 nM
CC(C)(O)CCNC1CCc2cc(O)c(N3CC(=O)NS3(=O)=O)c(F)c2C1 (centres unmarked)	1 to 10 nM
O=C1CN(c2c(O)cc3c(c2F)CC(NCCC(C(F)(F)F)C(F)(F)F)CC3)S(=O)(=O)N1 (centres unmarked)	1 to 10 nM
CC(C)CCNC1CCc2c(cc(O)c(N3CC(=O)NS3(=O)=O)c2F)C1 (centres unmarked)	10 to 100 nM
C=CCC1(N)CCc2cc(O)c(N3CC(=O)NS3(=O)=O)c(F)c2C1 (centres unmarked)	> 100 nM

The following molecules each have a reported value; give each one's IC50.
1. O=C1CN(c2c(O)cc3c(c2F)CC(OCC2CC(F)(F)C2)CC3)S(=O)(=O)N1 (centres unmarked)
2. CC(C)CCN(CCC(C)C)CC1Cc2cc(O)c(N3CC(=O)NS3(=O)=O)c(F)c2C1 (centres unmarked)
3. O=C1CN(c2c(O)cc3c(c2F)CN(C(=O)NCC2CCOC2)CC3)S(=O)(=O)N1 (centres unmarked)
4. O=C1CN(c2c(O)cc3c(c2F)CN(CC(O)C2CCCCC2)CC3)S(=O)(=O)N1 (centres unmarked)
5. CC(O)CCOC(=O)N1Cc2c(cc(O)c(N3CC(=O)NS3(=O)=O)c2F)C(F)(F)C1 (centres unmarked)
6. CC(C)CCN(Cc1ccccn1)C1CCc2cc(O)c(N3CC(=O)NS3(=O)=O)c(F)c2C1 (centres unmarked)
7. COC1CCc2c(F)c(O)c(N3CC(=O)NS3(=O)=O)c(F)c2C1 (centres unmarked)

["1 to 10 nM", "1 to 10 nM", "10 to 100 nM", "> 100 nM", "> 100 nM", "10 to 100 nM", "10 to 100 nM"]
